These entries and their values trace back to PubChem BioAssay AID686979.

Experiment Summary: qHTS for Inhibitors of human tyrosyl-DNA phosphodiesterase 1 (TDP1): qHTS in cells in presence of CPT; note: nearly all actives have a fitted effect of over 55% in size
Test Conditions: chicken DT40 Tdp1-/-;hTDP1 cells + 20 nM CPT, ATP luminescence, 48 h; series mostly up to 46.2 µM
Screen size: about 420,000 compounds; about 50,000 (12%) were called active. Another 26% or so got no clear call; they are omitted. Calls come from the whole dose curve; as a rule, active = well fitted inhibition curve with a large enough effect; inconclusive = small, poorly fitted or top-dose-only effect; inactive = flat fitted curve, though single readings scatter. Shown is part of a subset that was picked to be rich in actives.
Return exactly one item of active, inactive

compound="CCC(C(=O)NC(C)(C)C)n1c(-c2ccccc2)nc2ccccc21 (centres undefined)" group=active
compound=CC(=O)c1nc2ccccc2n1Cc1ccccc1 group=inactive
compound=Brc1ccc(-c2n(-c3ccccn3)c3ccccc3[n+]2-c2ccccn2)cc1 group=active

Outcome? O=C(CN1CCN(c2ccccn2)CC1)Nc1ccc(Br)cc1
inactive

* * *

Experiment Summary: qHTS for Inhibitors of human tyrosyl-DNA phosphodiesterase 1 (TDP1): qHTS in cells in presence of CPT; note: nearly all actives have a fitted effect of over 55% in size
Test Conditions: chicken DT40 Tdp1-/-;hTDP1 cells + 20 nM CPT, ATP luminescence, 48 h; series mostly up to 46.2 µM
Among all 420,000 compounds or so, about 50,000 (12%) were called active. Another 26% or so got no clear call; they are omitted. The call rests on the fitted dose curve; in most records, active means well fitted inhibition curve with a large enough effect; inconclusive means small, poorly fitted or top-dose-only effect; inactive means flat fitted curve, though single readings scatter. The full list was thinned out, with actives kept by preference.
Return exactly one item of t (active), f (inactive)

As a guide, the following entries are already answered.
molecule="CCCOC(=O)c1[nH]c2c(c1C)C(=O)CC(c1cccs1)C2 (configuration not stated)" group=t
molecule=COc1cc(-c2n[nH]c(=S)n2Cc2ccccc2)cc(OC)c1OC group=f
molecule=Cc1ccc(/C=N/NC(=O)Cn2nc(C)c(Br)c2C)o1 group=f
molecule=Cc1ccccc1NC(=O)C1CCN(C(=O)NC2CCCCC2)CC1 group=f
molecule=Cn1c(=O)c2c(nc(SCCNS(=O)(=O)c3ccccc3)n2C)n(C)c1=O group=f

Outcome? CC(=O)Nc1ccc(S(=O)(=O)N2CCC(C(=O)N[C@@H](Cc3ccccc3)C(=O)O)CC2)cc1
f

Outcome? CN(C)S(=O)(=O)c1cccc(NC(=O)Cc2ccsc2)c1
f

* * *

Experiment Summary: qHTS for Inhibitors of human tyrosyl-DNA phosphodiesterase 1 (TDP1): qHTS in cells in presence of CPT; note: nearly all actives have a fitted effect of over 55% in size
Test Conditions: chicken DT40 Tdp1-/-;hTDP1 cells + 20 nM CPT, ATP luminescence, 48 h; series mostly up to 46.2 µM
Out of some 420,000 compounds screened, about 50,000 (12%) were called active. Roughly 26% stayed inconclusive and do not appear here. Calls follow the shape of the dose curve; as a rule, active = well fitted inhibition curve with a large enough effect; inconclusive = small, poorly fitted or top-dose-only effect; inactive = flat fitted curve, though single readings scatter. For the sample, actives were picked, then their nearest neighbours and some compounds at random.
Return exactly one item of true (1) (active), false (0) (inactive)

As a guide, the following entries are already answered.
molecule=CCCCN(C(=O)c1nn(C)c(=O)c2ccccc12)c1c(N)n(CCC)c(=O)[nH]c1=O group="false (0)"
molecule="CCC1CCCCN1CCCNC(=O)C1CCC(Cn2c(=O)[nH]c3ccccc3c2=O)CC1 (configuration not stated)" group="false (0)"
molecule=O=C(Nc1sc2c(c1-c1nc3ccccc3[nH]1)CCCC2)C1CC1 group="false (0)"
molecule=Cc1c(C)c2c(OCC(=O)N[C@@H](C(=O)O)c3ccccc3)cc3c(c2oc1=O)CCC(C)(C)O3 group="false (0)"
molecule=Cc1cccc(NC(=S)NCCc2ccc(Cl)cc2)c1C group="true (1)"
molecule=CN(C)c1ccc(-c2nnc(-c3cccnc3)o2)cc1 group="false (0)"

Here is the next item to consider.
Outcome? Cc1c(Cl)cccc1NC(=S)NCC(O)c1ccccc1 (configuration not stated)
false (0)

* * *

Experiment Summary: qHTS for Inhibitors of human tyrosyl-DNA phosphodiesterase 1 (TDP1): qHTS in cells in presence of CPT; note: nearly all actives have a fitted effect of over 55% in size; note: potency is the fitted concentration of half-maximal effect
Test Conditions: chicken DT40 Tdp1-/-;hTDP1 cells + 20 nM CPT, ATP luminescence, 48 h; series mostly up to 46.2 µM
Out of some 420,000 compounds screened, about 50,000 (12%) were called active. Roughly 26% stayed inconclusive and do not appear here. Shown is part of a subset that was picked to be rich in actives.
Property Measured: Potency

Use the examples below as a reference point.
molecule=Cc1c(CNC2CCCCC2)c(C(=O)O)c(C)n1Cc1cccc(Cl)c1 result=inactive
molecule=Cc1ccccc1CN1CCC(CNC(=O)c2c(C)oc3ncnc(N4CCCCC4)c23)CC1 result=inactive
molecule="CC1CN(/C=C/C(=O)C(F)(F)F)CC(C)O1 (stereo unspecified)" result=inactive
molecule=Cn1c(CC(=O)Nc2ccc(F)cc2)nnc1SCC(=O)NC1CCCCC1 result=inactive
molecule=CCn1c(C)nc2cc(C(=O)NNS(=O)(=O)c3ccc(C)cc3C)ccc21 result=inactive

// below: Potency requested for another molecule
Memo: CCCNC(=O)c1ccc2c(c1)ncn2-c1ccc(C)cc1C , reported Potency: 16.4 µM (active)

* * *

Experiment Summary: qHTS for Inhibitors of human tyrosyl-DNA phosphodiesterase 1 (TDP1): qHTS in cells in presence of CPT; note: nearly all actives have a fitted effect of over 55% in size
Test Conditions: chicken DT40 Tdp1-/-;hTDP1 cells + 20 nM CPT, ATP luminescence, 48 h; series mostly up to 46.2 µM
Screen size: about 420,000 compounds; about 50,000 (12%) were called active. Another 26% or so got no clear call; they are omitted. Calls come from the whole dose curve; as a rule, active = well fitted inhibition curve with a large enough effect; inconclusive = small, poorly fitted or top-dose-only effect; inactive = flat fitted curve, though single readings scatter. The entries come from a sample that favours actives as a whole. Where a SMILES comes first, the peptide text is derived from it. Bridges are numbered along the chain shown (N, C = ends). [ ]: non-standard residue; d: D form. The star is where a group is joined. X4 = CC[C@H](C)CCCCC(=O)*; Dab = NCC[C@H](N)C(=O)O
Return exactly one item of active, inactive

As a guide, the following entries are already answered.
compound=CCOC(=O)C1CCN(C(=O)c2ccc3c(=O)n4nc(Nc5ccccc5CC)sc4nc3c2)CC1 group=active
compound="COc1ccc(C2/C(=C(/O)c3ccc4c(c3)CC(C)O4)C(=O)C(=O)N2Cc2ccncc2)cc1 (stereo unspecified)" group=inactive
compound=O=C(NCc1ccccc1)c1ccc2c(c1)nc1n2CCCCC1 group=inactive
compound=O=C(CCn1c(SCC(=O)c2ccccc2)nc2ccccc2c1=O)NCc1ccc(F)cc1 group=inactive
compound=CN(CC(=O)Nc1ccc(Cl)cc1)C(=O)CNC(=O)c1ccc2ccccc2c1 group=inactive
compound="CC[C@H](C)CCCCC(=O)N[C@@H](CCN)C(=O)N[C@H](C(=O)N[C@@H](CCN)C(=O)N[C@H]1CCNC(=O)[C@H]([C@@H](C)O)NC(=O)[C@H](CCN)NC(=O)[C@H](CCN)NC(=O)[C@H](CC(C)C)NC(=O)[C@@H](CC(C)C)NC(=O)[C@H](CCN)NC1=O)[C@@H](C)O (X4-[Dab]T[Dab][Dab][Dab][dL]L[Dab][Dab]T; lactam 4-C)" group=inactive
compound=O=C(c1cnn(-c2ccc(Cl)cc2)c1)c1ccccc1O group=inactive
compound=C=CCn1c(SCC(=O)CC(=O)OCC)nc2cc(C(=O)N3CCC(C(N)=O)CC3)ccc2c1=O group=inactive
compound="CCOC(=O)C1CCCN(C(=O)c2ccc(C)c(F)c2)CC1 (stereo unspecified)" group=inactive
compound="O=C(CSc1nc2ccccc2c(=O)n1Cc1ccc(F)cc1)NCC1CCCO1 (stereo unspecified)" group=inactive

Outcome? CC(=O)N1CCc2cc(Br)cc(S(=O)(=O)CCC(=O)NCCc3ccc(Cl)cc3)c21
inactive

Outcome? CCCCC(O)C1=C[N+](=O)CC=C1 (stereo unspecified)
inactive

Outcome? Cc1nc2c(c(C)nn2-c2ccccc2)c(C)c1CCC(=O)NCCc1ccc(Cl)cc1
inactive

Outcome? Cc1[nH]nc(-c2ccc(OCc3cnn(-c4ccccc4)c3)cc2O)c1Oc1ccc(Cl)cc1
active

Outcome? COc1ccc(/C(=N\O)c2nccc3cc(OC)c(OC)cc23)cc1OC
inactive

Outcome? COC(=O)c1ccc(-c2c(-c3ccccc3)ncc3cc(OC)c(OC)cc23)cc1
active

* * *

Experiment Summary: qHTS for Inhibitors of human tyrosyl-DNA phosphodiesterase 1 (TDP1): qHTS in cells in presence of CPT; note: nearly all actives have a fitted effect of over 55% in size; note: potency is the fitted concentration of half-maximal effect
Test Conditions: chicken DT40 Tdp1-/-;hTDP1 cells + 20 nM CPT, ATP luminescence, 48 h; series mostly up to 46.2 µM
Screen size: about 420,000 compounds; about 50,000 (12%) were called active. Another 26% or so got no clear call; they are omitted. The entries come from a sample that favours actives as a whole.
Property Measured: Potency

Use the examples below as a reference point.
molecule=O=C(CCCOc1ccccc1)NNC(=O)c1ccc(Cl)cc1 property_measured=Potency result=inactive
molecule=CCOC(=O)N1CCN(Cc2nnc(-c3ccccc3Cl)o2)CC1 property_measured=Potency result=inactive
molecule="O=C1c2ccccc2C(O)N1Cc1ccccc1 (configuration not stated)" property_measured=Potency result=inactive
molecule=CCCCOc1ccc(C(=O)NN2CCN(C)CC2)cc1 property_measured=Potency result=inactive
molecule="CC[C@]1(O)CC2CN(CCc3c([nH]c4ccccc34)[C@@](C(=O)OC)(c3cc4c(cc3OC)N(C=O)[C@H]3[C@@](O)(C(=O)OC)[C@H](OC(C)=O)[C@]5(CC)C=CCN6CC[C@]43[C@@H]65)C2)C1 (some centres not stated)" property_measured=Potency result="0.146 µM (active)"

Memo: Cc1ccc(NC(=O)c2ccn(C(=O)Nc3ccccc3)n2)c(C)c1 , reported Potency: inactive

Memo: Cc1ccc(NC(=O)c2oc(=O)c3ccccc3c2-c2ccccc2)c(C)c1 , reported Potency: 23.1 µM (active)
